# System: Hedgehog protein signaling pathway
# Experimental protocol: Inhibition of SAG-induced alkaline phosphatase activity (differentiation) in C3H10T1/2 cells
# Type: cell-based
# Conditions used: Mus musculus, C3H 10T1/2, after induction by 0.1 μM SAG
IC50 for assorted compounds

Here are 3 compounds together with their reported answers.
COc1ccc(C(=O)Nc2cccc(NC(=S)NC(=O)c3cc(OC)c(OC)c(OC)c3)c2)cc1 :: 1 to 3 µM
COc1cc(C(=O)NC(=S)Nc2cccc(NC(=O)c3ccccc3)c2)cc2c1OCO2 :: 1 to 3 µM
CCOc1cc(C(=O)NC(=S)Nc2cccc(NC(=O)c3ccccc3)c2)cc(OCC)c1OCC :: 0.01 to 1 µM

In: What does the data say about its IC50? Entry: COc1cc(OC)cc(C(=O)NC(=S)Nc2cccc(NC(=O)c3ccccc3)c2)c1
Out: 1 to 3 µM

In: What does the data say about its IC50? Entry: COc1cc(C(=O)NC(=S)Nc2cccc(NC(=O)c3ccc(Cl)cc3)c2)cc(OC)c1OC
Out: 0.01 to 1 µM

In: What does the data say about its IC50? Entry: COc1cc(C(=O)NC(=O)Nc2cccc(NC(=O)c3ccccc3)c2)cc(OC)c1OC
Out: 0.01 to 1 µM

In: What does the data say about its IC50? Entry: COc1cc(OC)c(C(=O)NC(=O)Nc2cccc(NC(=O)c3ccccc3)c2)cc1OC
Out: 1 to 3 µM

In: What does the data say about its IC50? Entry: CCOc1c(OC)cc(C(=O)NC(=S)Nc2cccc(NC(=O)c3ccccc3)c2)cc1OC
Out: 0.01 to 1 µM

* * *

# Test system: mouse Smoothened protein (Mus musculus, UniProt P56726)
# Sequence (P56726 33-793): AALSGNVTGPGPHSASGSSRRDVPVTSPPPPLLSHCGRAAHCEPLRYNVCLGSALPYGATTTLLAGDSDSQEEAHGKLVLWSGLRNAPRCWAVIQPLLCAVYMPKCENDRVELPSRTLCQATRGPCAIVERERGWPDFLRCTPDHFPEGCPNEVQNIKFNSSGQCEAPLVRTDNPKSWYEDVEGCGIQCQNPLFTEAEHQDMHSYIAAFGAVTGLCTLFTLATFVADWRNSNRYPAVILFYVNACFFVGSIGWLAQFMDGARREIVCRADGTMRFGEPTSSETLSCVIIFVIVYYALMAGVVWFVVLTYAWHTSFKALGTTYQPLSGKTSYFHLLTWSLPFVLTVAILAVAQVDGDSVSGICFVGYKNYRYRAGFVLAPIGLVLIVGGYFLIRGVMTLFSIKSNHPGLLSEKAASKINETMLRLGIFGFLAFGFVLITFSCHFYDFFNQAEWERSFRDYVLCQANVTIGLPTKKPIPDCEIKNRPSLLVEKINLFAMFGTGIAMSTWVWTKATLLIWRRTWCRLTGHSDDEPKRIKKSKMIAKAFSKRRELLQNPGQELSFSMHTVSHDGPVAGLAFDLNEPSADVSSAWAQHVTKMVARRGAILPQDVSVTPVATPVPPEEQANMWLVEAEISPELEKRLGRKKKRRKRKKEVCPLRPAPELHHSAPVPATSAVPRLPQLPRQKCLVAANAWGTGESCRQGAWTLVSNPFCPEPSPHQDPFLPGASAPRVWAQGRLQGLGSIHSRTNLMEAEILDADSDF
Measured quantity: IC50 (nM)
Your answer should be a plain number; it is taken to be in nM.

In: What does the data say about its IC50? Entry: COc1cc(C(=O)NC(=O)Nc2cccc(NC(=O)c3ccccc3)c2)cc(OC)c1OC [Compound 31]
Out: 120

* * *

# System: Hedgehog protein signaling pathway
# Experimental protocol: Inhibition of SAG-induced alkaline phosphatase activity (differentiation) in C3H10T1/2 cells
# Type: cell-based
# Conditions used: Mus musculus, C3H 10T1/2, after induction by 0.1 μM SAG
Measured quantity: IC50

CCOc1cc(C(=O)NC(=S)Nc2cccc(NC(=O)c3ccccc3)c2)cc(OC)c1OCC :: 0.01 to 1 µM

In: What does the data say about its IC50? Entry: COc1ccccc1C(=O)Nc1cccc(NC(=S)NC(=O)c2cc(OC)c(OC)c(OC)c2)c1
Out: 1 to 3 µM

In: What does the data say about its IC50? Entry: COc1cc(C(=O)NC(=O)Nc2cccc(NC(=O)c3ccc(-c4ccccc4)cc3)c2C)cc(OC)c1OC
Out: 0.01 to 1 µM

In: What does the data say about its IC50? Entry: COc1cc(C(=O)NC(=S)Nc2cccc(NC(=O)Nc3ccccc3)c2)cc(OC)c1OC
Out: 1 to 3 µM

In: What does the data say about its IC50? Entry: COc1cccc(C(=O)Nc2cccc(NC(=S)NC(=O)c3cc(OC)c(OC)c(OC)c3)c2)c1
Out: 1 to 3 µM

In: What does the data say about its IC50? Entry: COc1ccc(C(=O)NC(=S)Nc2cccc(NC(=O)c3ccccc3)c2)c(OC)c1
Out: 1 to 3 µM

In: What does the data say about its IC50? Entry: COc1cc(C(=O)NC(=S)Nc2cccc(NC(=O)c3ccccc3Cl)c2)cc(OC)c1OC
Out: 1 to 3 µM

In: What does the data say about its IC50? Entry: COc1cc(C(=O)NC(=S)Nc2cccc(NC(=O)Nc3ccc(-c4ccccc4)cc3)c2)cc(OC)c1OC
Out: 0.01 to 1 µM

* * *

# System: Hedgehog protein signaling pathway
# Experimental protocol: Inhibition of SAG-induced alkaline phosphatase activity (differentiation) in C3H10T1/2 cells
# Type: cell-based
# Conditions used: Mus musculus, C3H 10T1/2, after induction by 0.1 μM SAG
Measured quantity: IC50

Here are 5 compounds together with their reported answers.
COc1cc(C(=O)NC(=S)Nc2cccc(NC(=O)c3ccc(-c4ccccc4)cc3)c2)cc(OC)c1OC :: 0.01 to 1 µM
COc1cc(C(=O)NC(=S)Nc2cccc(-c3cn4ccsc4n3)c2)cc(OC)c1OC :: 1 to 3 µM
COc1cc(C(=O)NC(=O)Nc2cccc(-c3cc4ccccc4[nH]3)c2)cc(OC)c1OC :: 0.01 to 1 µM
COc1cc(C(=O)NC(=S)Nc2cccc(-c3cn4ccccc4n3)c2)cc(OC)c1OC :: 0.01 to 1 µM
COc1cc(C(=O)NC(=S)Nc2ccc(Cl)c(C(=O)Nc3ccc(N(C)C)cc3)c2)cc(OC)c1OC :: 1 to 3 µM

In: What does the data say about its IC50? Entry: COc1cc(C(=O)NC(=S)Nc2cccc(-n3ccc4ccccc43)c2)cc(OC)c1OC
Out: 1 to 3 µM

In: What does the data say about its IC50? Entry: COc1cc(C(=O)NC(=S)Nc2ccc(Cl)c(NC(=O)c3ccccc3)c2)cc(OC)c1OC
Out: 0.01 to 1 µM

src = patent US9073835B2
